Where these numbers come from: the supplement of paper PMC9112550

# System: Escherichia coli TOP10
# Test Name: shrunken log2 fold change of peptide-encoding DNA abundance (4.5 h post-induction vs induction); higher = less antimicrobial activity (less host growth inhibition)
# Applied Conditions: time post-induction: 4.5 h; library: site-saturation at positions 5, 18, 19, 20
Measured shrunken log2 fold change values are reported for all entries that follow.
Endpoint: shrunken log2 fold change

Residues: RRIRSRPPRLPRPRPRPWESPRP
Measured Target: Escherichia coli TOP10
Recorded Result: 0.0145
--
Residues: RRIRTRPPRLPRPRPRPFKSPRP
Measured Target: Escherichia coli TOP10
Recorded Result: -0.0217
--
Residues: RRIRYRPPRLPRPRPRPVIDPRP
Measured Target: Escherichia coli TOP10
Recorded Result: -0.942
--
Residues: RRIRTRPPRLPRPRPRPCYWPRP
Measured Target: Escherichia coli TOP10
Recorded Result: 0.0189
--
Residues: RRIRPRPPRLPRPRPRPRQTPRP
Measured Target: Escherichia coli TOP10
Recorded Result: 0.338
--
Residues: RRIRRRPPRLPRPRPRPHPPPRP
Measured Target: Escherichia coli TOP10
Recorded Result: 0.746
--
Residues: RRIRQRPPRLPRPRPRPTLAPRP
Measured Target: Escherichia coli TOP10
Recorded Result: 0.783
--
Residues: RRIRFRPPRLPRPRPRPRMQPRP
Measured Target: Escherichia coli TOP10
Recorded Result: 0.206
--
Residues: RRIRGRPPRLPRPRPRPRQTPRP
Measured Target: Escherichia coli TOP10
Recorded Result: -0.144
--
Residues: RRIRQRPPRLPRPRPRPYRAPRP
Measured Target: Escherichia coli TOP10
Recorded Result: -0.0946
--
Residues: RRIRWRPPRLPRPRPRPCNIPRP
Measured Target: Escherichia coli TOP10
Recorded Result: -0.133
--
Residues: RRIRQRPPRLPRPRPRPESAPRP
Measured Target: Escherichia coli TOP10
Recorded Result: 0.208
--
Residues: RRIRGRPPRLPRPRPRPDMEPRP
Measured Target: Escherichia coli TOP10
Recorded Result: 0.864
--
Residues: RRIRTRPPRLPRPRPRPKLMPRP
Measured Target: Escherichia coli TOP10
Recorded Result: -0.102
--
Residues: RRIRERPPRLPRPRPRPHSHPRP
Measured Target: Escherichia coli TOP10
Recorded Result: -0.269
--
Residues: RRIRCRPPRLPRPRPRPKYDPRP
Measured Target: Escherichia coli TOP10
Recorded Result: -0.605
--
Residues: RRIRHRPPRLPRPRPRPKYLPRP
Measured Target: Escherichia coli TOP10
Recorded Result: -0.0216
--
Residues: RRIRYRPPRLPRPRPRPMCIPRP
Measured Target: Escherichia coli TOP10
Recorded Result: -0.101
--
Residues: RRIRSRPPRLPRPRPRPCRMPRP
Measured Target: Escherichia coli TOP10
Recorded Result: -0.102
--
Residues: RRIRIRPPRLPRPRPRPNIKPRP
Measured Target: Escherichia coli TOP10
Recorded Result: -1.05
--
Residues: RRIRWRPPRLPRPRPRPIRIPRP
Measured Target: Escherichia coli TOP10
Recorded Result: -0.324
--
Residues: RRIRPRPPRLPRPRPRPCKMPRP
Measured Target: Escherichia coli TOP10
Recorded Result: -0.223
--
Residues: RRIRFRPPRLPRPRPRPLYLPRP
Measured Target: Escherichia coli TOP10
Recorded Result: -0.826
--
Residues: RRIRVRPPRLPRPRPRPTPYPRP
Measured Target: Escherichia coli TOP10
Recorded Result: -0.0655
--
Residues: RRIRARPPRLPRPRPRPNGRPRP
Measured Target: Escherichia coli TOP10
Recorded Result: -0.11
--
Residues: RRIRCRPPRLPRPRPRPGSKPRP
Measured Target: Escherichia coli TOP10
Recorded Result: -0.179
--
Residues: RRIRCRPPRLPRPRPRPRMEPRP
Measured Target: Escherichia coli TOP10
Recorded Result: 0.0253
--
Residues: RRIRKRPPRLPRPRPRPGTKPRP
Measured Target: Escherichia coli TOP10
Recorded Result: 0.0906
--
Residues: RRIRYRPPRLPRPRPRPKLWPRP
Measured Target: Escherichia coli TOP10
Recorded Result: 0.64
--
Residues: RRIRHRPPRLPRPRPRPFCIPRP
Measured Target: Escherichia coli TOP10
Recorded Result: -0.538
--
Residues: RRIRERPPRLPRPRPRPNLWPRP
Measured Target: Escherichia coli TOP10
Recorded Result: 0.0252
--
Residues: RRIRGRPPRLPRPRPRPQRFPRP
Measured Target: Escherichia coli TOP10
Recorded Result: 0.139
--
Residues: RRIRERPPRLPRPRPRPPKVPRP
Measured Target: Escherichia coli TOP10
Recorded Result: -0.0931
--
Residues: RRIRQRPPRLPRPRPRPEQYPRP
Measured Target: Escherichia coli TOP10
Recorded Result: -0.0417
--
Residues: RRIRYRPPRLPRPRPRPRHNPRP
Measured Target: Escherichia coli TOP10
Recorded Result: -0.477
--
Residues: RRIRLRPPRLPRPRPRPWEDPRP
Measured Target: Escherichia coli TOP10
Recorded Result: 0.0824
--
Residues: RRIRYRPPRLPRPRPRPVPGPRP
Measured Target: Escherichia coli TOP10
Recorded Result: -0.151
--
Residues: RRIRDRPPRLPRPRPRPKPTPRP
Measured Target: Escherichia coli TOP10
Recorded Result: 0.0678
--
Residues: RRIRRRPPRLPRPRPRPSMHPRP
Measured Target: Escherichia coli TOP10
Recorded Result: 0.324
--
Residues: RRIRQRPPRLPRPRPRPCFMPRP
Measured Target: Escherichia coli TOP10
Recorded Result: 0.628
--
Residues: RRIRMRPPRLPRPRPRPKFPPRP
Measured Target: Escherichia coli TOP10
Recorded Result: 0.455
--
Residues: RRIRYRPPRLPRPRPRPPFEPRP
Measured Target: Escherichia coli TOP10
Recorded Result: -0.0385
--
Residues: RRIRSRPPRLPRPRPRPKTWPRP
Measured Target: Escherichia coli TOP10
Recorded Result: -0.0488
--
Residues: RRIRWRPPRLPRPRPRPFRVPRP
Measured Target: Escherichia coli TOP10
Recorded Result: -0.0169
--
Residues: RRIRDRPPRLPRPRPRPELLPRP
Measured Target: Escherichia coli TOP10
Recorded Result: 0.011
--
Residues: RRIRIRPPRLPRPRPRPIWQPRP
Measured Target: Escherichia coli TOP10
Recorded Result: 0.182
--
Residues: RRIRERPPRLPRPRPRPENGPRP
Measured Target: Escherichia coli TOP10
Recorded Result: -0.025
--
Residues: RRIRHRPPRLPRPRPRPFILPRP
Measured Target: Escherichia coli TOP10
Recorded Result: -0.675
--
Residues: RRIRPRPPRLPRPRPRPLEAPRP
Measured Target: Escherichia coli TOP10
Recorded Result: 0.249
--
Residues: RRIRERPPRLPRPRPRPRTLPRP
Measured Target: Escherichia coli TOP10
Recorded Result: -0.17
--
Residues: RRIRMRPPRLPRPRPRPRRVPRP
Measured Target: Escherichia coli TOP10
Recorded Result: 1.3
--
Residues: RRIRPRPPRLPRPRPRPCQMPRP
Measured Target: Escherichia coli TOP10
Recorded Result: 0.0359
--
Residues: RRIRSRPPRLPRPRPRPTCRPRP
Measured Target: Escherichia coli TOP10
Recorded Result: -0.0471
--
Residues: RRIRPRPPRLPRPRPRPPHQPRP
Measured Target: Escherichia coli TOP10
Recorded Result: 0.146
--
Residues: RRIRWRPPRLPRPRPRPDVSPRP
Measured Target: Escherichia coli TOP10
Recorded Result: 0.265
--
Residues: RRIRSRPPRLPRPRPRPTTKPRP
Measured Target: Escherichia coli TOP10
Recorded Result: 0.0807
--
Residues: RRIRKRPPRLPRPRPRPFILPRP
Measured Target: Escherichia coli TOP10
Recorded Result: -0.0304
--
Residues: RRIRIRPPRLPRPRPRPNENPRP
Measured Target: Escherichia coli TOP10
Recorded Result: -0.59
--
Residues: RRIRCRPPRLPRPRPRPPRCPRP
Measured Target: Escherichia coli TOP10
Recorded Result: 1.9
--
Residues: RRIRWRPPRLPRPRPRPEPTPRP
Measured Target: Escherichia coli TOP10;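 note: peptides expressed intracellularly from a pBAD plasmid library in pooled LB shake-flask culture, induced with 0.3% L-arabinose, DNA abundance read by NGS, three biological replicates, DESeq2 with apeglm shrinkage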
Recorded Result: 0.857
